# target: human CD73 (Homo sapiens)
# Sequence (P21589 27-549): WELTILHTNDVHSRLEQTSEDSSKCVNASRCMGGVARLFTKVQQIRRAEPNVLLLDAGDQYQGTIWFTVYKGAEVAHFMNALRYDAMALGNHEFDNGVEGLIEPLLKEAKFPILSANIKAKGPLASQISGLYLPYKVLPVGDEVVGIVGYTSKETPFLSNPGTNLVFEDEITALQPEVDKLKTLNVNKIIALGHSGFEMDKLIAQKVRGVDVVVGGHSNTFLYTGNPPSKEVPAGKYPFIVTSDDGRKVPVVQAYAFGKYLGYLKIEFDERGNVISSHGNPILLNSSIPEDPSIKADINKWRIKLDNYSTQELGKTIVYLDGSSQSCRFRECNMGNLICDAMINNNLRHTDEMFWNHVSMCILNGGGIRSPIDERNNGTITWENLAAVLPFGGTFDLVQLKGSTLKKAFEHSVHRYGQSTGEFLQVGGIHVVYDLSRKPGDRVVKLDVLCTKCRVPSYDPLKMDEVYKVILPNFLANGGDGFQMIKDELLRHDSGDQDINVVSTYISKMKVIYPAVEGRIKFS
# test.description: Inhibitor activity against CD73 in cell based assay (CD73 expressing CHO-K1 cells)
# experimental.context: CHO-K1 cells expressing human CD73, 150 μM AMP, 4 hours of incubation; read-out: CHO-K1 CELL_VARIANT: CD73 IC50
pIC50: −log10 of the molar value.
measure: pIC50

Looking for the measured pIC50 of O=c1[nH]ncc(N2CC[C@@H](Oc3cc(C4CCC(O)CC4)ccn3)C2)c1Cl (stereo partly shown) [P-0031] , can you help?
5.00 to 9.00

Field request: pIC50 | item: O=C(NC1CCN(c2ccnc(O[C@@H]3CCN(c4cn[nH]c(=O)c4Cl)C3)c2)CC1)C1CC1 [P-0222]
5.00 to 9.00

Record request: pIC50 value, item Cc1nn(CC2CC(C#N)C2)c(C)c1-c1cc(O[C@@H]2CCN(c3cn[nH]c(=O)c3Cl)C2)ncn1 (stereo partly shown) [P-0052]
4.00 to 5.00

What measured pIC50 goes with CC(C)c1cc(Nc2cccnc2O[C@@H]2CCN(c3cn[nH]c(=O)c3Cl)C2)n(C)n1 [P-0109] ?
5.00 to 9.00
